Just for reference, ChEMBL document CHEMBL3784934 is where these values come from.

Experiment: Fraction unbound in rat brain by equilibrium dialysis assay
Format: ADME, tissue-based
Assay metric: fraction unbound

Please report the recorded fraction unbound for CC1(C)CCC(Nc2ncnc3c2nn2ccccc32)CC1 .
0.008

###

Target: Metabotropic glutamate receptor 5 (Rattus norvegicus)
Sequence (P31424 whole entry): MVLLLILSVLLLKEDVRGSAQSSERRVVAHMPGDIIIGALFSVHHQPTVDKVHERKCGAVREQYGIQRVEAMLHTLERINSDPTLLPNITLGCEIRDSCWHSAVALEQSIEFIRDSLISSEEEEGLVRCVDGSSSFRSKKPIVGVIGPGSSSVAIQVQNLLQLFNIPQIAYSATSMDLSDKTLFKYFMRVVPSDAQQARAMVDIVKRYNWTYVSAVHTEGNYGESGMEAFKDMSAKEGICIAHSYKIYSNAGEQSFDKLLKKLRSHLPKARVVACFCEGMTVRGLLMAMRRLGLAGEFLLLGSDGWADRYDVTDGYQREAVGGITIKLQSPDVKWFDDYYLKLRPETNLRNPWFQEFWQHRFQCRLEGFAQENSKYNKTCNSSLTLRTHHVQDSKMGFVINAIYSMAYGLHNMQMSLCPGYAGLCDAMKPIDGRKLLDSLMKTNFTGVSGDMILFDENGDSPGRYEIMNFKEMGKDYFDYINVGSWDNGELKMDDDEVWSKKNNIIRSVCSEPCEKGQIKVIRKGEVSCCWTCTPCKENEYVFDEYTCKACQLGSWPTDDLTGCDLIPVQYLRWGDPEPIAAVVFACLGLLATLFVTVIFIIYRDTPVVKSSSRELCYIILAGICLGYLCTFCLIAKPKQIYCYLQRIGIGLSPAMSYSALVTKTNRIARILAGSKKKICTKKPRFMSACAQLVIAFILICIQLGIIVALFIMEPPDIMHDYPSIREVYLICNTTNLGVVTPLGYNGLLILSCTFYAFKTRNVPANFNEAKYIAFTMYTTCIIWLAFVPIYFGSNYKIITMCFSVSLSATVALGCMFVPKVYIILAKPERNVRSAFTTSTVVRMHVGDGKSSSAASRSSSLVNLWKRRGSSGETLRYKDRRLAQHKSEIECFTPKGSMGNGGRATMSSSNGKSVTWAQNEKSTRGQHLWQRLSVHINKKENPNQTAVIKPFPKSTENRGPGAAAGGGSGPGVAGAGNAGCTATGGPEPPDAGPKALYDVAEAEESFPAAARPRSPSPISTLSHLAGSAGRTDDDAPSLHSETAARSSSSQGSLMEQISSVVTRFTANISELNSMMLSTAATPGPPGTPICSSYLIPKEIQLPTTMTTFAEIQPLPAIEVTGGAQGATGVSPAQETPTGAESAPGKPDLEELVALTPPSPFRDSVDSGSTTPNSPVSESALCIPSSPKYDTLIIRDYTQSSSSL
Assay: Negative allosteric modulation of rat mGluR5 expressed in HEK293 cells assessed as inhibition of glutamate induced calcium mobilization by calcium mobilization assay
Assay type: functional, cell-based
Conditions: read-out: IC50
Kindly supply the reported IC50 values for the records listed here.

In the examples that follow, each entry is paired with its recorded IC50.
COCCNc1nc(N[C@H]2CC[C@H](C)CC2)c2nn3ccccc3c2n1
> 30 µM
FC1(F)CCC(Nc2ncnc3c2nn2ccccc32)CC1
> 30 µM
C[C@H]1CC[C@H](Nc2nc(N)nc3c2nn2ccccc32)CC1
> 30 µM
CC1(C)[C@@H]2CC[C@]1(C)[C@@H](Nc1ncnc3c1nn1ccccc31)C2
> 30 µM

Each compound below has a recorded value; state its IC50.
1. C[C@H](Nc1ncnc2c1nn1ccccc21)C1CC1
2. C[C@@H](Nc1ncnc2c1nn1ccccc21)C1CC1
3. C[C@@H]1[C@@H](Nc2ncnc3c2nn2ccccc32)C[C@H]2C[C@@H]1C2(C)C
4. c1ccn2nc3c(NC4CCCCCCC4)ncnc3c2c1
5. C[C@H](Nc1ncnc2c1nn1ccccc21)C1CCCCC1

1: > 30 µM; 2: > 30 µM; 3: 2.09 µM; 4: 3.29 µM; 5: > 10 µM

Batch request: IC50 per item, same order as input.
1. CC(C)Nc1nc(N[C@H]2CC[C@H](C)CC2)c2nn3ccccc3c2n1
2. CCC(C)(C)Nc1ncnc2c1nn1ccccc21
3. C[C@H]1CC[C@H](Nc2ncnc3c2nn2ccccc32)CC1
4. c1ccn2nc3c(NC4CCCCC4)ncnc3c2c1
5. Cc1nc(N[C@H]2CC[C@H](C)CC2)c2nn3ccccc3c2n1

["> 30 µM", "> 30 µM", "2.27 µM", "> 30 µM", "> 30 µM"]

###

Molecular target: UniProtKB P08684
Sequence (P08684 whole entry): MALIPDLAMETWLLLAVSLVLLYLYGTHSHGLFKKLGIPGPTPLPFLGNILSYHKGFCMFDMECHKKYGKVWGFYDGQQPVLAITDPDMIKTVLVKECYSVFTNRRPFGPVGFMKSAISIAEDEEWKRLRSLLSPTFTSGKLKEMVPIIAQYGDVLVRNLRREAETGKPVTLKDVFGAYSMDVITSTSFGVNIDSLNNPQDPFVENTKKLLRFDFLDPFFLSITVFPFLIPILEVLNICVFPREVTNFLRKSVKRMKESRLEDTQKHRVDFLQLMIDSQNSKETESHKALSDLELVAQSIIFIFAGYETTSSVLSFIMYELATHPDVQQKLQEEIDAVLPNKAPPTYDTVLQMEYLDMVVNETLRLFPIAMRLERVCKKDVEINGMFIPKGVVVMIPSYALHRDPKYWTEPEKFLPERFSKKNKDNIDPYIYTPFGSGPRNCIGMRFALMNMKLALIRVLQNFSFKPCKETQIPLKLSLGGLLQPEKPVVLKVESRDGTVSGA
Assay metric: IC50

Which IC50 value belongs to CC1(C)CCC(Nc2ncnc3c2nn2ccccc32)CC1 ?
> 30 µM

###

Give %max for every item shown.
Target: Metabotropic glutamate receptor 1 (Rattus norvegicus) (UniProt P23385)
Sequence (P23385 19-1199 limits assumed): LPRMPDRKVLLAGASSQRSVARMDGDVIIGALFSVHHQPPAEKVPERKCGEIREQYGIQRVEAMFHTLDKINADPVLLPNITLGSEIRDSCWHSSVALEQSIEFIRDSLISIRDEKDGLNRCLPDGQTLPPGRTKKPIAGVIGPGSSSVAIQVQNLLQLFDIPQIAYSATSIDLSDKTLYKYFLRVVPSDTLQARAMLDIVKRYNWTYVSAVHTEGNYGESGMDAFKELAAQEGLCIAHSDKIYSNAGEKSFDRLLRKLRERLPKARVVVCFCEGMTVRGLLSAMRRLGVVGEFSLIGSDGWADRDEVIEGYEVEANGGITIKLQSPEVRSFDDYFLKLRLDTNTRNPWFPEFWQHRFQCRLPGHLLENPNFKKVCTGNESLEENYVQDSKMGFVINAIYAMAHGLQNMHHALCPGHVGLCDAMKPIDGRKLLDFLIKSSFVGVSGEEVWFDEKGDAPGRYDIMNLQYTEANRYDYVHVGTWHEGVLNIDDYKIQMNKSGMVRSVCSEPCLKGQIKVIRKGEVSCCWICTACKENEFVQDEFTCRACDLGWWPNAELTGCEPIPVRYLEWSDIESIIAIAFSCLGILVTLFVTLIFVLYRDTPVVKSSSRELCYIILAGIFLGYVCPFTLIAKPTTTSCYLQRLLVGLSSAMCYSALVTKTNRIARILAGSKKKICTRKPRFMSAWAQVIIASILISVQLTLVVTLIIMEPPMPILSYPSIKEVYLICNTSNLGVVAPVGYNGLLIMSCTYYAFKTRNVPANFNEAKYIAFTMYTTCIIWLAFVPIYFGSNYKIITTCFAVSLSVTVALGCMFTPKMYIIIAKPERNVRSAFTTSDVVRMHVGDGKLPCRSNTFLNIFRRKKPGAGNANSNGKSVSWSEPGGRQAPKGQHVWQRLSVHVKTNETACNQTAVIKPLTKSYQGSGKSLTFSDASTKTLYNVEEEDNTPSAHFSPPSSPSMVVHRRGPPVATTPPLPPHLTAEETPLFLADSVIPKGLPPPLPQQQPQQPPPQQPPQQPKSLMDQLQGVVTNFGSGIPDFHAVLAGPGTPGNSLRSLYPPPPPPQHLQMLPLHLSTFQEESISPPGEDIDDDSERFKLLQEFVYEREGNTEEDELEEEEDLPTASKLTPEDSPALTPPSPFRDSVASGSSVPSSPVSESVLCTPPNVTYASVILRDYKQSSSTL
Experiment: Negative allosteric modulation of rat mGluR1 expressed in HEK293 cells assessed as calcium mobilization at 30 uM by calcium mobilization assay relative to 100 uM glutamate
Format: functional, cell-based
Give bare numbers, in %.

Examples with their reported %max follow.
C[C@@H]1[C@H]2C[C@@H](C[C@H]1Nc1ncnc3c1nn1ccccc31)C2(C)C
2.7
c1ccc2c(c1)CC(Nc1ncnc3c1nn1ccccc31)C2
2.1
c1ccn2nc3c(NC4CCCCC4)ncnc3c2c1
-0.5

Record %max per entry; entries follow.
1. c1ccn2nc3c(NC4CCCCCC4)ncnc3c2c1
2. CC1(C)[C@@H]2CC[C@]1(C)[C@@H](Nc1ncnc3c1nn1ccccc31)C2
3. C[C@H]1CC[C@H](Nc2nc(N)nc3c2nn2ccccc32)CC1
4. FC1(F)CCC(Nc2ncnc3c2nn2ccccc32)CC1
5. CCC(C)(C)Nc1ncnc2c1nn1ccccc21

1. 2
2. 7.1
3. 0.58
4. 39
5. 12.6

// batch mode: one %max value per listed entry
1. c1ccn2nc3c(NC4C5CC6CC(C5)CC4C6)ncnc3c2c1 (stereo unspecified)
2. C[C@@H](Nc1ncnc2c1nn1ccccc21)C1CCCCC1
3. Cc1nc(N[C@H]2CC[C@H](C)CC2)c2nn3ccccc3c2n1

2.9
2.4
2.6
